Test: endothelial E-selectin expression blockers – imaging, HUVEC, immunofluorescence, MLSMR starter and 10KST1 sets, primary screen (AID 487);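 note: signal is fraction of cell area covered by stained E-selectin grains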
Settings: HUVEC TNFalpha-induced E-selectin immunofluorescence imaging, at 2 µM; hits give high values
inhibition for assorted molecules
OBSERVED PROPERTY: inhibition (%)

MOLECULE | OBSERVED PROPERTY | REPORTED RESULT
CN(Cc1ccco1)C(=O)Cn1c(=O)oc2cc(S(=O)(=O)NCc3ccccc3)ccc21 | inhibition | -17.8
CCCCCn1c(CCNC(=O)CCC)nc2ccccc21 | inhibition | -30.5
Fc1ccc(-c2ccc(-c3nn4c(-c5ccco5)nnc4s3)o2)cc1 | inhibition | -25.8
COc1cccc(-c2nnc(SCC(N)=O)n2-c2ccc(Cl)cc2)c1 | inhibition | -60.5
COc1ccc(-c2cc(C(F)(F)F)n3ncc(C(=O)NCC4CCCO4)c3n2)cc1 (stereo unspecified) | inhibition | 57.7
COc1cc(CN(C)CC(=O)c2[nH]c(C)c(C(C)=O)c2C)ccc1OC(F)F | inhibition | -86.8
CC(C)(NC(=O)N1CCCC1)c1cccc(C(C)(C)NC(=O)N2CCCC2)c1 | inhibition | 21.6
Cc1nnc(SCC(=O)N2CCN(S(=O)(=O)c3ccccc3)CC2)[nH]c1=O | inhibition | -39.5
O=C(CN1CCCCCC1)OCCN=C1NS(=O)(=O)c2ccccc21 | inhibition | -187
Cc1[nH]c(C(=O)N2CCCCC2)c(C)c1C(=O)NC1CCCCC1 | inhibition | -49.8
CCCC(NC(=O)c1ccccc1)c1nc2ccccc2n1Cc1ccc(C(=O)OC)o1 (stereo unspecified) | inhibition | -91.8
CCn1nc(CC(=O)Nc2nnc(CC(=O)N3CCCCC3)s2)c2ccccc2c1=O | inhibition | -289
CCOc1ccc(NC(=O)CSc2nnc(Cc3cccn3C)n2-c2ccc(OC)cc2)cc1 | inhibition | -103
O=c1[nH]c2ccc(Br)cc2c(-c2ccccc2)c1N1CCOCC1 | inhibition | -12
COCCOC(=O)c1c(C)oc2ccc(NS(=O)(=O)c3ccc(F)cc3)cc12 | inhibition | 30.2
CCCCCn1c(CN2CCN(C(=O)OCC)CC2)nc2c1c(=O)[nH]c(=O)n2C | inhibition | 16.4
Cc1cc(Cl)ccc1OCC(=O)Nn1c(C)ccc1C | inhibition | -16.2
CN1CCc2c(sc3c2c(=O)n(-c2ccccc2)c2nnc(SCc4ccc(F)cc4)n32)C1 | inhibition | -45
CCC1(c2ccc(F)cc2)NC(=O)N(CC(=O)c2ccc[nH]2)C1=O (stereo unspecified) | inhibition | -36.7
CC(C)CC(c1nnnn1CC1CCCO1)N1CCN(Cc2ccc3c(c2)OCO3)CC1 (stereo unspecified) | inhibition | -21.2
Cc1ccc2c(c1C)NC(=O)C2(O)CC(=O)c1ccc2c(c1)OCO2 (stereo unspecified) | inhibition | -44
